# experimental protocol: Behavioral analysis after ICV infusion (quisqualate excitotoxicity model)
# Format: in vivo, rats
# stated conditions: rat, in vivo, icv or intrathecal, 225 nmol; Quisqualate 225 nmoles ICV, rats; read-out: death, cases
assay readout: mortality (%)

>  <molecule>
N[C@@H](Cn1oc(=O)[nH]c1=O)C(=O)O [Quisqualate, quisqualate]

>  <assay readout>
mortality

>  <unit string>
%

>  <reported measurement>
60

$$$$

----------
# experimental protocol: Behavioral analysis after ICV infusion (quisqualate excitotoxicity model)
# Type: in vivo, rats
# stated conditions: rat, in vivo, icv or intrathecal, 250 nmol; Quisqualate 250 nmoles ICV, rats; read-out: death, cases

>  <molecule>
N[C@@H](Cn1oc(=O)[nH]c1=O)C(=O)O [Quisqualate, quisqualate]

>  <mortality (%)>
75

$$$$
